These measurements were taken from patent US9115151B2.

Below, each of the compounds is paired with its reported pIC50 value.
assaySystem: PKCα (Homo sapiens)
Construct: His6; purchased Millipore; host or cells: baculovirus in Sf21 cells
protocolNotes: In vitro enzyme assay (time-resolved fluorescence kinase assay), PKCα, 100 μM ATP
Format: biochemical
testConditions: 100 μM ATP; read-out: PKCα enzyme IC50
pIC50: −log10 of the molar value.

INSERT INTO results (compound, assaysystem, result) VALUES
  ('CC1C(=O)NN=C2COc3cc(C4CC4)c(C4CCNCC4)cc3N21 (stereo not shown) [Example 77, trifluoroacetic acid]', 'PKCα (Homo sapiens)', '5.00 to 6.00'),
  ('CC1C(=O)NN=C2COc3cc(-c4ccccc4)c(N(C)C4(C)CN(Cc5ccccc5)C4)cc3N21 (stereo not shown) [Example 92]', 'PKCα (Homo sapiens)', '6.00 to 6.60'),
  ('C[C@@H]1C(=O)NN=C2COc3cc(-c4ccccc4F)c([C@@H](C)C4(C)CN(CC(C)(C)O)C4)cc3N21 [Example 143]', 'PKCα (Homo sapiens)', '6.00 to 6.60');

The compound listed as CC1C(=O)NN=C2COc3cc(C(F)(F)F)c(CC4CNC4)cc3N21 (stereo not shown) [Example 99, trifluoroacetic acid] shows pIC50 equal to 5.00 to 6.00

Measured pIC50 of C[C@@H]1C(=O)NN=C2COc3cc(-c4ccccc4F)c(N(C)C4(C)CN(C[C@@H](C)O)C4)cc3N21 [Example 189] : 6.00 to 6.60

Per the record, CC[C@@H]1CNCCN1c1cc2c(cc1-c1ccccc1F)OCC1=NNC(=O)[C@@H](C)N12 [Example 226] has pIC50 of 6.00 to 6.60

# pIC50 (compound: Cc1cc2c(cc1NC1CNC1)N1C(=NNC(=O)C1C)CO2 (stereo not shown) [Example 122, ditrifluoroacetic acid] ) is 5.00 to 6.00

====

Parameter: pIC50. Scope: all listed entries.
assaySystem: PKCα (Homo sapiens, UniProt P17252)
Construct: His6; purchased Millipore; host or cells: baculovirus in Sf21 cells
protocolNotes: In vitro enzyme assay (time-resolved fluorescence kinase assay), PKCα, 100 μM ATP
Assay type: biochemical
testConditions: 100 μM ATP; read-out: PKCα enzyme IC50
Description: PKC kinase activity was assayed by time-resolved fluorescence in vitro kinase assay. Unless otherwise indicated, all reagents used for enzyme assays were obtained from Sigma. […]
pIC50: −log10 of the molar value.

Below, each entry is followed by its recorded pIC50 result.
INSERT INTO measurements (molecule, assaymetric, result) VALUES
  ('CC1C(=O)NN=C2COc3cc(-c4ccc(Cl)cc4Cl)c(NC4CNC4)cc3N21 (racemic)', 'pIC50', '5.00 to 6.00'),
  ('CC1C(=O)NN=C2COc3cc(-c4cccc(F)c4)c(N(C)C4(C)CN(C)C4)cc3N21 (stereo not drawn)', 'pIC50', '6.00 to 6.60'),
  ('CC1C(=O)NN=C2COc3cc(-c4cccc(C(F)(F)F)c4)c(NC4CNC4)cc3N21 (racemic)', 'pIC50', '5.00 to 6.00'),
  ('CC1C(=O)NN=C2COc3ccc(C4CCNC(Cc5ccccc5)C4)cc3N21 (stereo not drawn)', 'pIC50', '5.00 to 6.00'),
  ('CC1C(=O)NN=C2COc3cc(-c4ccc(C#N)cc4)c(NC4CNC4)cc3N21 (racemic)', 'pIC50', '5.00 to 6.00');

Now look at this entry.
The value of pIC50 measured for the molecule CC1C(=O)NN=C2COc3cc(-c4cccc(COC(C)(C)C)c4)c(NC4CNC4)cc3N21 (racemic) turned out to be 5.00 to 6.00

====

assaySystem: PKCα (Homo sapiens, UniProt P17252)
Construct: His6; purchased Millipore; host or cells: baculovirus in Sf21 cells
protocolNotes: In vitro enzyme assay (time-resolved fluorescence kinase assay), PKCα, 100 μM ATP
Format: biochemical
testConditions: 100 μM ATP; read-out: PKCα enzyme IC50
Quick reference for IC50 among some compounds

Below, each entry is followed by its recorded IC50 result.
INSERT INTO assay_data (compound, assaysystem, result) VALUES
  ('CC1C(=O)NN=C2COc3cc(F)c(OC4CNC4)cc3N21 (stereo not drawn)', 'PKCα (Homo sapiens, UniProt P17252)', '1000 to 10000 nM'),
  ('C[C@@H]1C(=O)NN=C2COc3cc(C(F)(F)F)c(NC4CNC4)cc3N21 (single isomer, unassigned)', 'PKCα (Homo sapiens, UniProt P17252)', '1000 to 10000 nM'),
  ('C[C@@H]1CNCC[C@@H]1c1cc2c(cc1-c1ccccc1CO)OCC1=NNC(=O)[C@@H](C)N12', 'PKCα (Homo sapiens, UniProt P17252)', '1000 to 10000 nM'),
  ('CC1C(=O)NN=C2COc3cc(-c4cccc5ccccc45)c(NC4CNC4)cc3N21 (racemic)', 'PKCα (Homo sapiens, UniProt P17252)', '1000 to 10000 nM'),
  ('C[C@@H]1C(=O)NN=C2COc3cc([C@@H](C)C(F)(F)F)c(NC4CNC4)cc3N21', 'PKCα (Homo sapiens, UniProt P17252)', '1000 to 10000 nM');

API: the following record is the query input.
Field IC50 (PKCα (Homo sapiens, UniProt P17252)), entry CC1C(=O)NN=C2COc3cc(-c4ccccc4)c(N(C)C4(C)CN(CC5CCOCC5)C4)cc3N21 (stereo not drawn) : 250 to 1000 nM

====

assaySystem: PKCθ (Homo sapiens, UniProt Q04759)
Construct: His6
Sequence (Q04759 whole entry): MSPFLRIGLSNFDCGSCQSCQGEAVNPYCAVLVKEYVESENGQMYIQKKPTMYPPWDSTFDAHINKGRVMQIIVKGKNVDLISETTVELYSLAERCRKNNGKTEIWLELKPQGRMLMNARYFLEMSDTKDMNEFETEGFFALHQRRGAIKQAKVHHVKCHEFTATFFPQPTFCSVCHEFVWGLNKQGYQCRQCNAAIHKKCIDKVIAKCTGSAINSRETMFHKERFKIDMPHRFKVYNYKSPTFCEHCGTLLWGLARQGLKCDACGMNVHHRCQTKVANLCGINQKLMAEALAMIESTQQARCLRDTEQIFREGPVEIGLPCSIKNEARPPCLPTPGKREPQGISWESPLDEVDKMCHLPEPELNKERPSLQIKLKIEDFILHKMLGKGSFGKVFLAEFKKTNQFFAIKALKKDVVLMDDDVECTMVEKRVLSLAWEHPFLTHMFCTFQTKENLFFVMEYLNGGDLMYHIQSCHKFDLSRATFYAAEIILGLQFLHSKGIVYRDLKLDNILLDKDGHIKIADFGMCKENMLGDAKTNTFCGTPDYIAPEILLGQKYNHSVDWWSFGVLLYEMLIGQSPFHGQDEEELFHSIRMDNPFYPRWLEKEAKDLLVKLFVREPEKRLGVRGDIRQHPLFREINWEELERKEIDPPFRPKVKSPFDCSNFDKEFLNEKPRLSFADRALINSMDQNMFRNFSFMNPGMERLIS
protocolNotes: In vitro enzyme assay (time-resolved fluorescence kinase assay), PKCθ, 100 μM ATP
assayMetric: IC50

Solved cases below.
INSERT INTO assay_data (compound, result) VALUES
  ('CC(C)c1cc2c(cc1NC1CNC1)N1C(=NNC(=O)[C@@H]1C)CO2 (single isomer, unassigned) [Example 57-2, trifluoroacetic acid]', '250 to 1000 nM'),
  ('CC1C(=O)NN=C2COc3cc(-c4cccc(OC(F)(F)F)c4)c(NC4CNC4)cc3N21 (racemic) [Example 16]', '250 to 1000 nM'),
  ('C[C@@H]1C(=O)NN=C2COc3cc(-c4c(Cl)cccc4N4CCNCC4)ccc3N21 [Example 131]', '< 250 nM');

Just so you know, measured IC50 for CC1C(=O)NN=C2COc3cc(-c4ccc(C#N)cc4)c(NC4CNC4)cc3N21 (racemic) [Example 41] came out at 250 to 1000 nM

Record Cc1ccc(-c2cc3c(cc2NC2CNC2)N2C(=NNC(=O)C2C)CO3)c(F)c1 (racemic) [Example 12] . Reported IC50: < 250 nM

Reported IC50 for Cc1cc2c(cc1N(C)C1CNC1)N1C(=NNC(=O)C1C)CO2 (stereo not shown) [Example 55, trifluoroacetic acid] was 250 to 1000 nM

Looking up C[C@@H]1C(=O)NN=C2COc3cc(-c4ccccc4F)c(N4[C@@H]5CC[C@H]4CN(C)C5)cc3N21 [Example 235] , I see its IC50 listed as < 250 nM

====

Reported IC50 values are given for each entry in this list.
assaySystem: PKCα (Homo sapiens, UniProt P17252)
Construct: His6; purchased Millipore; host or cells: baculovirus in Sf21 cells
protocolNotes: In vitro enzyme assay (time-resolved fluorescence kinase assay), PKCα, 100 μM ATP
Type: biochemical
testConditions: 100 μM ATP; read-out: PKCα enzyme IC50

INSERT INTO results (molecule, result) VALUES
  ('CC(C)c1cc2c(cc1C1CCNCC1)N1C(=NNC(=O)[C@H]1C)CO2 [Example 208]', '1000 to 10000 nM'),
  ('CC1C(=O)NN=C2COc3cc(-c4ccc(C#N)cc4)c(N(C)C4(C)CN(C)C4)cc3N21 (stereo not drawn) [Example 174]', '1000 to 10000 nM');

Just so you know, measured IC50 for C[C@@H]1C(=O)NN=C2COc3ccc([C@H]4CCN[C@H](Cc5ccccc5)C4)cc3N21 (single isomer, unassigned) [Example 109-1, trifluoroacetic acid] came out at 1000 to 10000 nM

For C[C@@H]1C(=O)NN=C2COc3cc4ccn([C@@H]5CCNC5)c4cc3N21 [Example 151-2] the molecule record lists IC50 as 1000 to 10000 nM

# IC50 (molecule: CCN1CC(C)(N(C)c2cc3c(cc2-c2ccccc2)OCC2=NNC(=O)C(C)N23)C1 (stereo not drawn) [Example 93] ) is 1000 to 10000 nM

response.value for Cc1cc(-c2cc3c(cc2NC2CNC2)N2C(=NNC(=O)C2C)CO3)ccc1F (racemic) [Example 32] (field: IC50) = 1000 to 10000 nM

The molecule identified as CC1C(=O)NN=C2COc3cc(F)c(C4CCNCC4)cc3N21 (stereo not drawn) [Example 72] registered its IC50 at 1000 to 10000 nM

molecule C[C@@H]1C(=O)NN=C2COc3cc(C4=CCC(F)(F)CC4)c(C4CCNCC4)cc3N21 [Example 211] , IC50 observed: 1000 to 10000 nM

Input Cc1cccc(-c2cc3c(cc2N(C)C2(C)CN(C)C2)N2C(=NNC(=O)C2C)CO3)c1 (stereo not drawn) [Example 172] . Output IC50: 250 to 1000 nM
